Study System: PKCα (Homo sapiens)
Value Type: IC50

Compound	Value Type	Observed
C[C@H]1CN(C(=O)CC#N)[C@]12CCN(c1ncnc3[nH]ccc13)C2 [JTE-052]	IC50	> 1000 nM

* * *

Sequence of the target: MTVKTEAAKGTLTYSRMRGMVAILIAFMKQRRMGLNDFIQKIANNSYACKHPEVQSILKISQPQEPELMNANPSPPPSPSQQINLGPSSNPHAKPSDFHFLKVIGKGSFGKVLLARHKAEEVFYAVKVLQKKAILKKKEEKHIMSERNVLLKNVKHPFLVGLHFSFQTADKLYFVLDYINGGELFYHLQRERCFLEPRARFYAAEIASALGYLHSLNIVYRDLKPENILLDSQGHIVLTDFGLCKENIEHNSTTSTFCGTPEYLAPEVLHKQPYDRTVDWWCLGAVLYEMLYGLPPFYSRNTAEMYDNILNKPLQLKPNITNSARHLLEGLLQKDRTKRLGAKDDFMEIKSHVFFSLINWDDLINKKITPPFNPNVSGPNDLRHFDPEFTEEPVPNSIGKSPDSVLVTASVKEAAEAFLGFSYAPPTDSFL

Smi	IC50
C[C@H]1CN(C(=O)CC#N)[C@]12CCN(c1ncnc3[nH]ccc13)C2	> 1000 nM
